So I've got a bunch of binders here, and I need their Kd values.
- target_or_system: SARS-CoV-2 spike RBD (Wuhan-Hu-1) (Severe acute respiratory syndrome …, UniProt P0DTC2)
- method: SPR
Answers are plain numbers, in nM.

# count of solved cases: 8
For the binder COVIC-170 (antibody, V domains shown) VH: EVQLVQSGAEVKKPGESLKISCKGSGYSFTSYWIGWVRQMPGKGLEWMGIIYPGDSDTRYSPSFQGQVTISADKSISTAYLQWSSLKASDTAMYYCVRSYNWNYFDYWGQGTLVTVSS VL: AIQLTQSPSSLSASVGDRVTITCRASQGISSGLAWYQQKAGKAPKLLIYDVSSLESGVPSRFSGSGSGTDFTLTISSLQPEDFATYYCQQFLSYPWTFGQGTKVEIKR , what Kd is on record?
1.16

For the binder COVIC-294 (antibody, V domains shown) VH: EVQLVESGGGLVQPGGSLRLSCAASGITVSSNYMNWVRQAPGKGLEWVSVIYSGGSTFYADSVKGRFTIARDNSKNTLYLQMNSLRAEDTAVYYCAREGLLVGPTGRGLGMDVWGQGTTVTVSS VL: DIQMTQSPSSLSASVGDRVTITCQASQDINNYLNWYQQKPGKAPKLLIYDASNLQTGVPSRFSGSGSGTDFTFTISSLQPEDIATYYCQQYADLPYTFGQGTKLQIK , what Kd is on record?
0.0593

For the binder COVIC-162 (antibody, V domains shown) VH: QLQLQESGPGLVKPSETLSLTCTVSGGSISNSNYYWGWIRQPPGKGLEWIGSIYYSGRTYYNPSLKSRVTISVDTSKNQFSLKLSSVTAADTAVYYCARMGLLWFGEFYGMDVWGQGTTVTVSS VL: DIQMTQSPSSLSASVGDRVTITCRASQGISSWLAWYQQKPEKAPKSLIYDASSLQRGVPSRFSGSGSGTDFTLTISSLQPEDFASYYCQQYNSYPLTFGGGTRVEIKR , what Kd is on record?
191

For the binder COVIC-309 (antibody, V domains shown) VH: EVQLVESGGGLVQPGRSLRLSCAASGFTFDDYAMHWVRQAPGKGLEWVSGISWNSGSIGYADSVKGRFTISRDNAKNSLHLQMNSLRAEDTALYYCANLLTPPRRYSGYDLREDYFEYWGQGTLVTVSS VL: SSELTQDPAVSVALGQTVRITCQGDSLRSYYASWYQQKPGQAPVLVIYDRNNRPSGIPDRFSGSSSGNTASLTITGAQAEDEADYYCHSRDSSGNPLHVVFGGGTKLTVL , what Kd is on record?
104

For the binder COVIC-64 (antibody) QVQLQESGGGLVQAGGSLRLSCAASGRTFSEYAMGWFRQAPGKEREFVATISWSGGSTYYTDSVKGRFTISRDNAKNTVYLQMNSLKPDDTAVYYCAAAGLGTVVSEWDYDYDYWGQGTQVTVSSGGSGGSQVQLQESGGGLVQAGGSLRLSCVASGSIFSINAMDWYRQAPGKQRELVAGITSGGSTNYGDFVKGRFTISRDNAKNTVYLQMDSLKPEDTAVYYCAAEVGGWGPPRPDYWGHGTQVTVSSGGGGSGGGGSKKKPLDGEYFTLQIRGRERFEMFRELNEALELKDAQAGKEPG , what Kd is on record?
169

For the binder COVIC-22 (antibody, V domains shown) VH: EVQLLESGGGLVQPGGSLRLSCAASGFTFSRHAMNWVRQAPGKGLEWVSGISGSGDETYYADSVKGRFTISRDNSKNTLYLQMNSLRAEDTAVYYCARDLPASYYDSSGYYWHNGMDVWGQGTLVTVSS , what Kd is on record?
0.414

For the binder COVIC-63 (antibody) QVQLQESGGGLVQAGGSLRLSCAASGRTFSEYAMGWFRQAPGKEREFVATISWSGGSTYYTDSVKGRFTISRDNAKNTVYLQMNSLKPDDTAVYYCAAAGLGTVVSEWDYDYDYWGQGTQVTVSSGGSGGSQVQLQESGGGLVQAGGSLRLSCAASGRTFSEYAMGWFRQAPGKEREFVATISWSGGSTYYTDSVKGRFTISRDNAKNTVYLQMNSLKPDDTAVYYCAAAGLGTVVSEWDYDYDYWGQGTQVTVSSGGGGSGGGGSEPKSCDKTHTCPPCPAPELLGGKKKPLDGEYFTLQIRGRERFEMFRELNEALELKDAQAGKEPG , what Kd is on record?
185

For the binder COVIC-369 (antibody, V domains shown) VH: EVRLVESGGGLIQPGGSLTLSCAASGVIVSRNYMNWVRQAPGKGLEWVSVIYSGGSTFYADSVKGRFTISRDNSKNTLYLQMNSLRAEDTAVYYCARWGPNYYGSGSDHYNSYGMDVWGQGTTVTVSS VL: EIVLTQSPGTLSLSPGESATLSCRASQGVSSSSLAWYQQRPGQAPRLLMYGASSRATGIPDRFSGSGSGTDFTLTISRLEPEDFAVYYCQQSGSSPQYTFGQGTKLEIKR , what Kd is on record?
0.209

Would you mind listing Kd for each of the following binders?
1. COVIC-35 (antibody, V domains shown) VH: EVQLVESGGGVVQPGRSLRLSCAASGFTFSSYAMHWVRQAPGKGLEWVAVISYDGSYKYYADSVKGRFTISRDNSKNTLYLQMNSLTAEDTAVYYCAREGSRQWLVIYFDYWGQGTLVTVSS VL: AIRMTQSPSSLSASVGDRVTITCRASQSISSYLNWYQQKPGKAPKLLIYAASSLQSGVPSRFSGSGSGTDFTLTISSLQPEDFATYYCQQSYTTFIYTFGQGTKLEIK
2. COVIC-184 (antibody, V domains shown) VH: QITLKESGPTLVKPTQTLTLTCTFSGFSLSTSGVGVGWIRQPPGKALEWLALIYWDDDKRYSPSLKSRLTITKDTSKNQVVLTMTNMDPVDTATYYCAHHKIERIFDYWGQGTLVTVSS VL: QSALAQPASVSGSPGQSITISCTGTSSDVGAYNYVSWYQQHPGKAPKLMIYDVSKRPSGVSNRFSGSKSGNTASLTISGLQAEDEADYYCSSYTTSSTVFGGGTKLTVL

1. 2.81
2. 34.4
